system: Staphylococcus aureus; assay: Antibacterial activity against Staphylococcus aureus ATCC 12598 by broth dilution method; format: functional
parameter: MIC (µg/mL)

(a) O=C1C=C[C@]23Oc4ccc(O)c5c4[C@](Oc4cccc1c42)(O3)[C@@H]1O[C@@H]1C5=O
(b) CO[C@@H]1[C@H](Cl)C(=O)c2c(O)ccc3c2[C@@]12Oc1cccc4c1[C@](O3)(O2)[C@H](OC)CC4=O
# return whichever of a and b has the smaller MIC Answer by stating the label of the chosen item. b

---

experiment: Cytotoxicity against human HeLa cells assessed as decrease in cell viability after 72 hrs by MTS assay; format: functional, cell-based
parameter: IC50 (µM)
Give the value, in units of µM, as a plain number.

These solved cases illustrate the format of a correct answer.
{"compound": "CO[C@@H]1CC(=O)c2cccc3c2[C@@]12Oc1ccc(O)c4c1[C@](O3)(O2)[C@H](O)[C@H](Cl)C4=O", "IC50 [µM]": 19}
{"compound": "O=C1C=C[C@]23Oc4ccc(O)c5c4[C@](Oc4cccc1c42)(O3)[C@@H]1O[C@@H]1[C@@H]5O", "IC50 [µM]": 21}
{"compound": "CO[C@@H]1[C@H](Cl)C(=O)c2c(O)ccc3c2[C@@]12Oc1cccc4c1[C@](O3)(O2)[C@H](OC)CC4=O", "IC50 [µM]": 27}

Find the recorded IC50 belonging to O=C1c2c(O)ccc3c2[C@@]2(Oc4cccc5c4[C@](C=C[C@@H]5O)(O3)O2)[C@@H]2O[C@H]12 and report it. 18

Find the recorded IC50 belonging to O=C1CC[C@]23Oc4ccc(O)c5c4[C@](Oc4cccc1c42)(O3)[C@@H]1O[C@@H]1C5=O and report it. 19

Find the recorded IC50 belonging to COc1cccc2c1C(=O)c1c(O)c3c(c(O)c1C2=O)C[C@@](O)(C(=O)CO)C[C@@H]3O[C@H]1C[C@H](N)[C@@H](O)[C@H](C)O1 [EPIRUBICIN] and report it. 0.42

Find the recorded IC50 belonging to O=C1C=C[C@]23Oc4ccc(O)c5c4[C@](Oc4cccc1c42)(O3)[C@@H]1O[C@@H]1C5=O and report it. 14

Find the recorded IC50 belonging to O=C1C[C@@H](O)[C@]23Oc4ccc(O)c5c4[C@](Oc4cccc1c42)(O3)[C@@H]1O[C@@H]1C5=O and report it. 15
